Origin of measurements: patent US9763961B2

# target system: UniProt:Q92731
# Sequence (Q92731 whole entry, species assumed): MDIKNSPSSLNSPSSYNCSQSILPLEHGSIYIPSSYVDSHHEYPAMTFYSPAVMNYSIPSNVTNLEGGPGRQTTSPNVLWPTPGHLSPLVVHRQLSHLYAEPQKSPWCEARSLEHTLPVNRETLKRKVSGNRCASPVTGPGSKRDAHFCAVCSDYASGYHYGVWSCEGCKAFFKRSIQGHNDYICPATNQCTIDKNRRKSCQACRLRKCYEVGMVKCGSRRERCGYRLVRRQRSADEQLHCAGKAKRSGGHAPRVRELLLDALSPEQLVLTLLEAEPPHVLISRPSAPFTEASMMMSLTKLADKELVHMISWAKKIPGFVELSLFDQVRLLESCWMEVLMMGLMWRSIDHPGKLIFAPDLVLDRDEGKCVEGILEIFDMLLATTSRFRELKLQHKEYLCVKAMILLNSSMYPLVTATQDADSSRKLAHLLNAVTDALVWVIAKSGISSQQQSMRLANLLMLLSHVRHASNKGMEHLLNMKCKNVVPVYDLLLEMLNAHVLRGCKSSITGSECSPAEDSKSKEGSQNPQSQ
# assay overview: Transient transfection luciferase assay with pCI-ERb and ERE-SV40 reporter in HeLa cells, with 100 pM estradiol
# condition parameters: HeLa cells, in the presence of 100 pM of estradiol, 24 h
property label: IC50 (µM)

- compound: "COc1cccc(/C=C/C(=O)c2ccc(O)cc2O)c1OC [Compound No. 1-9, 2′,4′-Dihydroxy-2,3-dimethoxychalcone]"
  unit tag: "µM"
  IC50: 4.6

[P] COc1ccc(C(=O)/C=C/c2ccccc2OC)c(O)c1
[Q] O=C(/C=C/c1ccccc1O)c1ccc(O)cc1O [Compound No. 7-5, 2,2′,4′-Trihydroxychalcone]
Endpoint returns the identifier whose IC50 is numerically larger, either P or Q . Answer with the label corresponding to your selection.
P
(P: 15 µM, Q: 7.4 µM)

* * *

# target system: human ERRα-1 (Homo sapiens, UniProt P11474)
# Sequence (P11474 1-423): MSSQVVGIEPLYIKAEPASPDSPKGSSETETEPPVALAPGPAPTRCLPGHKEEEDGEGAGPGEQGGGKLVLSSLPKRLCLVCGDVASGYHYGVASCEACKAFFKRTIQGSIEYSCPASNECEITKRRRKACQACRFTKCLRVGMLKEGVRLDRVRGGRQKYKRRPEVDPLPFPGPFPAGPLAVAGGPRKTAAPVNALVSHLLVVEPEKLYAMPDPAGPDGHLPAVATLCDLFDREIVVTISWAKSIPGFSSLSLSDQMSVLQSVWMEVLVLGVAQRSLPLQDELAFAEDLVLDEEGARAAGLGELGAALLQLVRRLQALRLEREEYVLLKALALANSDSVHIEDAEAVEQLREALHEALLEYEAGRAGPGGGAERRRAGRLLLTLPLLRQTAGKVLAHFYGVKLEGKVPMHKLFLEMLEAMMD
# assay overview: Transient transfection luciferase assay, full length human ERRα with SF1-SV40-Luc reporter in HeLa cells
# condition parameters: HeLa cells, pSG5-ERRα, 24 h, mean ± SD
property label: IC50 (µM)

- compound: "O=C(/C=C/c1ccccc1O)c1ccc(O)cc1O [Compound No. 7-5, 2,2′,4′-Trihydroxychalcone]"
  target system: "human ERRα-1 (Homo sapiens, UniProt P11474)"
  IC50 [µM]: 6.2

[1] COc1cccc(/C=C/C(=O)c2ccc(O)cc2O)c1OC [Compound No. 1-9, 2′,4′-Dihydroxy-2,3-dimethoxychalcone]
[2] COc1ccc(C(=O)/C=C/c2ccccc2OC)c(O)c1
Between 1 and 2 , whose recorded IC50 is greater? Answer = label.
2

* * *

# target system: GAL4-human ERRα LBD fusion (Homo sapiens, UniProt P11474)
# Construct: GAL4-human ERRα LBD fusion expression plasmid; expressed in transfected cells; host or cells: HeLa
# assay overview: Transient transfection luciferase assay, GAL4-human ERRα LBD fusion with Gal4-TK-Luc reporter in HeLa cells
# Format: cell-based
# condition parameters: pM-ERRα LBD, 24 h, mean ± SD
property label: IC50 (pM)

- compound: "O=C(/C=C/c1ccccc1O)c1ccc(O)cc1O [Compound No. 7-5, 2,2′,4′-Trihydroxychalcone]"
  target system: "GAL4-human ERRα LBD fusion (Homo sapiens, UniProt P11474)"
  IC50 (pM): 900000

[1] COc1ccc(C(=O)/C=C/c2ccccc2OC)c(O)c1 [7-2]
[2] COc1cccc(/C=C/C(=O)c2ccc(O)cc2O)c1OC [Compound No. 1-9, 2′,4′-Dihydroxy-2,3-dimethoxychalcone]
Given the two records 1 and 2 , choose the one whose IC50 value is lower. Kindly give the label for the entry you pick.
2

* * *

# target system: ERRα (Homo sapiens)
# Sequence (P11474 1-423): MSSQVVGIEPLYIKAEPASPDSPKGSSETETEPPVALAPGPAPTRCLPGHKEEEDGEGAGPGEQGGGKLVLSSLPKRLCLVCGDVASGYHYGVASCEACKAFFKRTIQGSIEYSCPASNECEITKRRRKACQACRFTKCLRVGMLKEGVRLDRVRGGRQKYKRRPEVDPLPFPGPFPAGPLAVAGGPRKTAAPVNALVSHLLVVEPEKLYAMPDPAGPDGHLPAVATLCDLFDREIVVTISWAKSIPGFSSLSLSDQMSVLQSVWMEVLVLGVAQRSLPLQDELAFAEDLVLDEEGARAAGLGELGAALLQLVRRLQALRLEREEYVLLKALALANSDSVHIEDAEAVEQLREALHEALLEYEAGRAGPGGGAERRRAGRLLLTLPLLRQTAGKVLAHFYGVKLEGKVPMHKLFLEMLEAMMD
# assay overview: Transient transfection assays, relative luciferase activity for ERRα (FIG. 7)
# condition parameters: read-out: IC50 values through transient transfection assays
# Protocol: HeLa cells were cultured in MEM Earle's salts medium supplemented with 5% charcoal/dextran-treated fetal bovine serum. Cells were then divided and cultured in 6-well plates until 80% confluence was achieved. The cells were next transfected with 4 μg Lipofectin. […] After a 24-hour incubation, the cells was harvested from the plates by scraping, and the luciferase activities in the cell lysates (with the same amounts of protein) was measured according to the manufacturer's instructions (Promega). […]
property label: IC50

State its IC50 on ERRα (Homo sapiens): COc1cccc(/C=C/C(=O)c2ccc(O)cc2O)c1OC [Compound No. 1-9, 2′,4′-Dihydroxy-2,3-dimethoxychalcone]
700 to 2000 nM

* * *

# target system: ERα (Homo sapiens)
# Sequence (P03372 whole entry, species assumed): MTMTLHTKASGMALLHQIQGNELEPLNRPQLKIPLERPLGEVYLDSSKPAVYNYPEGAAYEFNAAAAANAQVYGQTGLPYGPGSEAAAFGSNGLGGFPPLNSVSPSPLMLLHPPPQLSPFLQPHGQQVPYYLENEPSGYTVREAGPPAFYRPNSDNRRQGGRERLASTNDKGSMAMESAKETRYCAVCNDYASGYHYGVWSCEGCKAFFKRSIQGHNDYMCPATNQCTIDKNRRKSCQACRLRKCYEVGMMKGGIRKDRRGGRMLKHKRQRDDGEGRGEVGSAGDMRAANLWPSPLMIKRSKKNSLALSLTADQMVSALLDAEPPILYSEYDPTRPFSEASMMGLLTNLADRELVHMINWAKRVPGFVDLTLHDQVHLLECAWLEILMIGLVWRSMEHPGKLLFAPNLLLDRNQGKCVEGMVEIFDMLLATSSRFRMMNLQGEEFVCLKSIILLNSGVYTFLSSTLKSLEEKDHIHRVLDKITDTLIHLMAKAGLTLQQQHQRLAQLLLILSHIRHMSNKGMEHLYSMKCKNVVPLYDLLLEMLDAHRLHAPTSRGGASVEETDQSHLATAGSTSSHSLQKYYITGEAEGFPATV
# assay overview: Transient transfection luciferase assay with pSG5-ERa and ERE-SV40 reporter in HeLa cells, with 100 pM estradiol
# condition parameters: HeLa cells, in the presence of 100 pM of estradiol, 24 h
property label: IC50 (µM)

- molecule: "O=C(/C=C/c1ccccc1O)c1ccc(O)cc1O [Compound No. 7-5, 2,2′,4′-Trihydroxychalcone]"
  unit tag: "µM"
  reported value: 3.7

[1] COc1cccc(/C=C/C(=O)c2ccc(O)cc2O)c1OC [Compound No. 1-9, 2′,4′-Dihydroxy-2,3-dimethoxychalcone]
[2] COc1ccc(C(=O)/C=C/c2ccccc2OC)c(O)c1
Min IC50? 1 | 2 Reply briefly: the label of your chosen item.
1

* * *

# target system: ERRβ (Homo sapiens, UniProt O95718)
# Sequence (O95718 whole entry, species assumed): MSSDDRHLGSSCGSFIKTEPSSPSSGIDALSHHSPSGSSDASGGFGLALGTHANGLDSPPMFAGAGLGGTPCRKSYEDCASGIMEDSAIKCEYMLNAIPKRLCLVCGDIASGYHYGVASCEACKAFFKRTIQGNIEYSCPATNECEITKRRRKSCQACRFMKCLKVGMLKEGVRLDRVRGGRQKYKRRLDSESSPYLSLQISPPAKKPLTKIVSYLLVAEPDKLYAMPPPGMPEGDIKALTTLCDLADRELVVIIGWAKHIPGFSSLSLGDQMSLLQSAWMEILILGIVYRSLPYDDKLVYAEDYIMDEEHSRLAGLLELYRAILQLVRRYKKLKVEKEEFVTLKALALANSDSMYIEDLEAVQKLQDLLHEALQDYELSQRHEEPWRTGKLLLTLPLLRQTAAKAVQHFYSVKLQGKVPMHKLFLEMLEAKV
# assay overview: Transient transfection luciferase assay with pSG5-ERRb and SF1-SV40 reporter in HeLa cells
# condition parameters: HeLa cells, 24 h, average of at least two experiments
pIC50: −log10 of the molar value.
property label: pIC50

- molecule: "COc1ccc(C(=O)/C=C/c2ccccc2OC)c(O)c1"
  reported value: 5.17

[a] O=C(/C=C/c1ccccc1O)c1ccc(O)cc1O [Compound No. 7-5, 2,2′,4′-Trihydroxychalcone]
[b] COc1cccc(/C=C/C(=O)c2ccc(O)cc2O)c1OC [Compound No. 1-9, 2′,4′-Dihydroxy-2,3-dimethoxychalcone]
I need your help: which of the pair a , b has higher pIC50? Give the label of your selection.
b

* * *

# target system: ERRγ (Homo sapiens)
# Sequence (P62508 whole entry): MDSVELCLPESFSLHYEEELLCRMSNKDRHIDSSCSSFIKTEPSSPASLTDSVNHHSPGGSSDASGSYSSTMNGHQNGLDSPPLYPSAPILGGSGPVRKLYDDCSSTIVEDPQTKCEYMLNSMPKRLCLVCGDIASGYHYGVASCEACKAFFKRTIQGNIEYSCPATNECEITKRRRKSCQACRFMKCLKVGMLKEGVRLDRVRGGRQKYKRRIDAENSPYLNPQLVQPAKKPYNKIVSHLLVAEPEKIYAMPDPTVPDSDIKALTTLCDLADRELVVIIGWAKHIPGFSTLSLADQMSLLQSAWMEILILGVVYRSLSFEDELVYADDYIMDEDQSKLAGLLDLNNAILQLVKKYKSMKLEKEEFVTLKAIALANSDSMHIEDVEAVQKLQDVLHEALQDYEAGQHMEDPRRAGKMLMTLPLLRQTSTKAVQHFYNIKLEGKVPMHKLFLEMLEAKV
# assay overview: Transient transfection luciferase assay with pSG5-ERRg and SF1-SV40 reporter in HeLa cells
# condition parameters: HeLa cells, 24 h, average of at least two experiments
pIC50: −log10 of the molar value.
property label: pIC50

- molecule: "COc1ccc(C(=O)/C=C/c2ccccc2OC)c(O)c1"
  reported value: 5.10

[A] O=C(/C=C/c1ccccc1O)c1ccc(O)cc1O [Compound No. 7-5, 2,2′,4′-Trihydroxychalcone]
[B] COc1cccc(/C=C/C(=O)c2ccc(O)cc2O)c1OC [Compound No. 1-9, 2′,4′-Dihydroxy-2,3-dimethoxychalcone]
Hi there, can you help? I need to know whether A or B has lower measured pIC50. // output: label of the selected item
B
